subject-of-test: human serum protein
measurement-notes: adsorption to human serum protein-immobilized magnetic beads, western blot quantification
quantity-name: decrease of adsorption to human serum protein compared to the wild type TM2 (%)
Give bare numbers, in %.

Examples from the recorded data:
binder	result-number
TM2 R104EK141E (protein) MSDVQSSLTGTWYNELNSKMELTANKDGTLTGKYLSKVGDVYVPYPLSGRYNLQPPAGQGVALGWAVSWENSKIHSATTWSGQFFSESSPVILTQWLLSSSTAEGDVWESTLVGNDSFTKTAPTEQQIAHAQLHCRAPRLE	70
TM2 R104E (protein) MSDVQSSLTGTWYNELNSKMELTANKDGTLTGKYLSKVGDVYVPYPLSGRYNLQPPAGQGVALGWAVSWENSKIHSATTWSGQFFSESSPVILTQWLLSSSTAEGDVWESTLVGNDSFTKTAPTEQQIAHAQLHCRAPRLK	10
TM2 K141E (protein) MSDVQSSLTGTWYNELNSKMELTANKDGTLTGKYLSKVGDVYVPYPLSGRYNLQPPAGQGVALGWAVSWENSKIHSATTWSGQFFSESSPVILTQWLLSSSTARGDVWESTLVGNDSFTKTAPTEQQIAHAQLHCRAPRLE	40

The following binders each have a reported value; give each one's decrease of adsorption to human serum protein compared to the wild type TM2.
1. TM2 K73Q (protein) MSDVQSSLTGTWYNELNSKMELTANKDGTLTGKYLSKVGDVYVPYPLSGRYNLQPPAGQGVALGWAVSWENSQIHSATTWSGQFFSESSPVILTQWLLSSSTARGDVWESTLVGNDSFTKTAPTEQQIAHAQLHCRAPRLK
2. TM2 K26A (protein) MSDVQSSLTGTWYNELNSKMELTANADGTLTGKYLSKVGDVYVPYPLSGRYNLQPPAGQGVALGWAVSWENSKIHSATTWSGQFFSESSPVILTQWLLSSSTARGDVWESTLVGNDSFTKTAPTEQQIAHAQLHCRAPRLK

Result:
1. 40
2. 30
